Would you kindly list inhibition for each of these molecules?
Target: Neutrophil elastase (Homo sapiens) (UniProt P08246)
Sequence (whole entry): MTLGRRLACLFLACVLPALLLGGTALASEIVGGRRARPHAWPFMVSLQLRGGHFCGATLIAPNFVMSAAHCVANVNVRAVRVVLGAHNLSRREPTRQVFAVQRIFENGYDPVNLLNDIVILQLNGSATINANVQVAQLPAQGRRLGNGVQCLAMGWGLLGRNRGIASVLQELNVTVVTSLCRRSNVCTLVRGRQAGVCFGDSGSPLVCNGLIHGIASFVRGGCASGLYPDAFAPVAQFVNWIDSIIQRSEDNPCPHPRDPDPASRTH
Experiment: Inhibition of Human Leukocyte Elastase induced lung hemorrhage in hamsters expressed as % inhibition (mean of 4 animals)
Format: functional
Design: concentration or dose not given beside the values
Settings: concentration not given here
Numbers only, in %.

Sample answers from the record:
>  <molecule>
CCC1(CC)C(=O)N(C(=O)NCc2ccccc2)C1Oc1ccccc1CC(=O)O (stereo unspecified)

>  <assay-system>
Neutrophil elastase (Homo sapiens) (UniProt P08246)

>  <inhibition (%)>
45

$$$$
>  <molecule>
CCC1(CC)C(=O)N(C(=O)NCc2ccccc2)C1Oc1ccc(C[N+](C)(C)C)cc1 (stereo unspecified)

>  <assay-system>
Neutrophil elastase (Homo sapiens) (UniProt P08246)

>  <inhibition (%)>
4

$$$$
>  <molecule>
CCC1(CC)C(=O)N(C(=O)NCc2ccccc2)C1Oc1ccc(C(=O)O)c2ccccc12 (stereo unspecified)

>  <assay-system>
Neutrophil elastase (Homo sapiens) (UniProt P08246)

>  <inhibition (%)>
15

$$$$
>  <molecule>
CCC1(CC)C(=O)N(C(=O)NCc2ccccc2)C1Oc1ccc2cc(C(=O)O)ccc2c1 (stereo unspecified)

>  <assay-system>
Neutrophil elastase (Homo sapiens) (UniProt P08246)

>  <inhibition (%)>
28

$$$$

List inhibition for every entry below, keeping the order given.
1. CCC1(CC)C(=O)N(C(=O)NCc2ccccc2)C1n1ccnc1 (stereo unspecified)
2. CCC1(CC)C(=O)N(C(=O)NCc2ccccc2)C1Oc1ccc(C(=O)CCC(=O)O)cc1 (stereo unspecified)

[55, 85]

Data provenance: ChEMBL document CHEMBL1127040
